Cited source: patent US20240360227A1

# target entity: Recombinant human his-tagged IGF R extracellular domain protein (human) (UniProt P08069)
# test method notes: SPR, Ab captured via anti-huIgG Fc, pH 7.4
pKd: −log10 of the molar value.
# if value of pKd reaches 9, tag true (1); if it stays below, tag false (0)

Query :: Could you tell me if the measured pKd of VRDN-02100 (antibody, human IgG1, kappa, V domains shown) VH: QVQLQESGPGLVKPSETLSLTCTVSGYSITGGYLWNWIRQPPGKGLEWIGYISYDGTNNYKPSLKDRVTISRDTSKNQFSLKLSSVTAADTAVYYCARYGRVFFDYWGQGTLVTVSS VL: DIVMTQSPLSLPVTPGEPASISCRSSQSIVHSNGNTYLQWYLQKPGQSPQLLIYKVSNRLYGVPDRFSGSGSGTDFTLKISRVEAEDVGVYYCFQGSHVPWTFGQGTKVEIKR reaches 9 or more?
Result :: true (1)

Query :: Could you tell me if the measured pKd of VRDN-02023 (antibody, V domains shown) VH: QVQLQESGPGLVKPSETLSLTCTVSGYSITGGYLWNWIRQPPGKGLEWIGYISYDGTNNYKPSLKDRVTISRDTSKNQFSLKLSSVTAADTAVYYCARYGHVFFDYWGQGTLVTVSS VL: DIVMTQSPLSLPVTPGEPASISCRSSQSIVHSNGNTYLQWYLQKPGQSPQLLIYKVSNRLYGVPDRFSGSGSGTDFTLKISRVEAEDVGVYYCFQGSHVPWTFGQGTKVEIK reaches 9 or more?
Result :: false (0)

Query :: Could you tell me if the measured pKd of VRDN-02007 (antibody, V domains shown) VH: QVQLQESGPGLVKPSETLSLTCTVSGYSITGHYLWNWIRQPPGKGLEWIGYISYDGTNNYKPSLKDRVTISRDTSKNQFSLKLSSVTAADTAVYYCARYGRVFFDYWGQGTLVTVSS VL: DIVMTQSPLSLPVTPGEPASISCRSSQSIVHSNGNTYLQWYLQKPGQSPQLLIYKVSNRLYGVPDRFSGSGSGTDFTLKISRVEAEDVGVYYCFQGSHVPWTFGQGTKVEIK reaches 9 or more?
Result :: false (0)

***
Query :: Could you tell me if the measured pKd of VRDN-02015 (antibody, V domains shown) VH: QVQLQESGPGLVKPSETLSLTCTVSGYSITGGYLWNWIRQPPGKGLEWIGYISHDGTNNYKPSLKDRVTISRDTSKNQFSLKLSSVTAADTAVYYCARYGRVFFDYWGQGTLVTVSS VL: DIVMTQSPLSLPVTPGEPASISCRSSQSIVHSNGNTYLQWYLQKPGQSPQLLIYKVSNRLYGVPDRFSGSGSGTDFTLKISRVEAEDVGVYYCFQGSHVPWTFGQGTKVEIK reaches 9 or more?
Result :: true (1)
